Reference source for all entries: ChEMBL document CHEMBL4689842

# System: U2OS
# Experiment Summary: Multiplex assay against U2OS
# Assay type: toxicity, cell-based
# Run Parameters: human, 48 h, 10 µM, compound concentration 10 uM, replicate 1
Quantity Kind: Population Normal (%)
Numbers only, in %.

Below, 3 compounds whose answers are already recorded.
O=C(Nc1ccc(Cl)cc1)Nc1cccc(-c2cccc(N3CCCC3)n2)c1 = 68
CCOC(=O)c1c(C)[nH]c2ccc3c(c12)CN1CCc2cc(OC)ccc2C1O3 (centres undefined) = 93
CCc1cccc(CC)c1NC(=O)c1nn(C)c2c1CCc1cnc(Nc3ccc(C(=O)NC4CCN(C)CC4)cc3OC(F)(F)F)nc1-2 = 94

Here is another compound to look at.
Specify Population Normal (%) for Cc1cc(C)c(S(=O)(=O)N(Cc2ccc(-c3cccc(S(C)(=O)=O)c3)cc2)Cc2ccc(C(F)(F)F)o2)c(C)c1 and stop.
96
